B1: Gamma-crystallin D, residues 90 to 170; numbered along this chain, P07320 (parent)
chain: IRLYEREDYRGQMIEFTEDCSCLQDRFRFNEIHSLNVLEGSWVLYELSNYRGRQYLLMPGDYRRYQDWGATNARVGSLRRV

- Variants of: B1
- Experimental Protocol: abundance fitness (aPCA) (normalised: wild type 0, dead -1); higher = more abundant; growth selection in yeast, the domain comes from the species named
- Protocol Conditions: Homo sapiens
Binned abundance fitness; ranges: bucket 1 = under -0.1, bucket 2 = from -0.1 up to 0.02, bucket 3 = 0.02 and over

Mutant Code	Qualitative Label
T17F	bucket 3
P59N	bucket 2
L56D	bucket 3
Y45P	bucket 1
Y55S	bucket 3
E46N	bucket 1
L47P	bucket 1
E31W	bucket 3
L57R	bucket 1
F27Y	bucket 2
I14L	bucket 1
Y50A	bucket 1
E39R	bucket 2
R10E	bucket 3
F29N	bucket 2
E39Q	bucket 2
S21C	bucket 2
N30T	bucket 3
L38K	bucket 1
Q54M	bucket 1
T17G	bucket 2
G52F	bucket 1
